These data points were gathered from paper PMC6273226.

# System: TK- VZV 07-1 strain
# protocol.notes: microbe, parasite or virus in culture
# Type: cell-based, varicella-zoster virus
# experimental.setup: Human alphaherpesvirus 3, HEL, read-out: Antiviral Activity EC50 TK- VZV Strain
Quick list: EC50 per entry.
Form entry: value (µM) — number only.

CCOP(=O)(OCC)[C@H]1C[C@H](c2nc3ccccc3c(=O)n2Cc2ccc([N+](=O)[O-])cc2)ON1C (relative stereo) [trans-11e/cis-11e (90:10)]	42.9

Recorded EC50 for CCOP(=O)(OCC)[C@H]1C[C@H](c2nc3ccccc3c(=O)n2CC)ON1C (relative stereo) [trans-11k/cis-11k (97:3)] , please? 41.6

Recorded EC50 for CCOP(=O)(OCC)[C@H]1C[C@H](c2nc3ccccc3c(=O)n2Cc2ccccc2[N+](=O)[O-])ON1C (relative stereo) [trans-11c] , please? 100

Recorded EC50 for O=c1[nH]c(=O)n([C@H]2C[C@H](O)[C@@H](CO)O2)cc1/C=C/Br [Brivudin, reference compound] , please? 25.6

###

# Test system: human cytomegalovirus Davis strain
# protocol.notes: Antiviral activity against human cytomegalovirus Davis strain in HEL cell cultures
# Assay type: cell-based
# experimental.setup: Human betaherpesvirus 5
property: EC50 (µM)
Form entry: value (µM) — number only.

Answered examples (4):
Nc1nc(O)c2ncn(COC(CO)CO)c2n1 [Ganciclovir, reference compound]	0.63
CCOP(=O)(OCC)[C@H]1C[C@H](c2nc3ccccc3c(=O)n2Cc2ccccc2[N+](=O)[O-])ON1C (relative stereo) [trans-11c]	44.7
CCOP(=O)(OCC)[C@H]1C[C@H](c2nc3ccccc3c(=O)n2Cc2cccc(F)c2)ON1C (relative stereo) [trans-11g]	27.6
Nc1ccn(C[C@@H](CO)OCP(=O)(O)O)c(=O)n1 [Cidofovir, reference compound]	0.23

# ---- query compound ----
Recorded EC50 for CCOP(=O)(OCC)[C@H]1C[C@H](c2nc3ccccc3c(=O)n2Cc2ccc([N+](=O)[O-])cc2)ON1C (relative stereo) [trans-11e/cis-11e (90:10)] , please? 20

###

# Tested on: human cytomegalovirus AD-169 strain
# protocol.notes: Antiviral activity against human cytomegalovirus AD-169 strain in HEL cell cultures
# Format: cell-based
# experimental.setup: Human betaherpesvirus 5, AD169
property: EC50 (µM)
Form entry: value (µM) — number only.

Answered examples (3):
CCOP(=O)(OCC)[C@H]1C[C@H](c2nc3ccccc3c(=O)n2Cc2ccc([N+](=O)[O-])cc2)ON1C (relative stereo) [trans-11e/cis-11e (90:10)]	44.7
CCOP(=O)(OCC)[C@H]1C[C@H](c2nc3ccccc3c(=O)n2Cc2ccccc2)ON1C (relative stereo) [trans-11b/cis-11b (90:10)]	44.7
Nc1ccn(C[C@@H](CO)OCP(=O)(O)O)c(=O)n1 [Cidofovir, reference compound]	1.49

# ---- query compound ----
Recorded EC50 for Nc1nc(O)c2ncn(COC(CO)CO)c2n1 [Ganciclovir, reference compound] , please? 10.5

###

# Tested on: TK- VZV 07-1 strain
# protocol.notes: microbe, parasite or virus in culture
# Type: cell-based, varicella-zoster virus
# experimental.setup: Human alphaherpesvirus 3, HEL, read-out: Antiviral Activity EC50 TK- VZV Strain
Quick list: EC50 per entry.

CCOP(=O)(OCC)[C@H]1C[C@H](c2nc3ccccc3c(=O)n2Cc2ccc(F)cc2)ON1C (relative stereo) [trans-11h]	> 20 µM
CCOP(=O)(OCC)[C@H]1C[C@H](c2nc3ccccc3c(=O)n2Cc2ccccc2F)ON1C (relative stereo) [trans-11f/cis-11f (90:10)]	> 20 µM

# ---- query compound ----
Recorded EC50 for CCOP(=O)(OCC)[C@H]1C[C@H](c2nc3ccccc3c(=O)n2Cc2ccc(F)cc2F)ON1C (relative stereo) [trans-11i/cis-11i (97:3)] , please? > 20 µM
